Would you kindly list Kd for each of these binders?
# system-under-test: T1, human CD37 (human, UniProt P11049 1-278)
# T1 construct: Tetraspanin antigen; Expressed on 300-19 cells transfected with pSRa-CD37 (entire CDS) or endogenous on WSU-DLCL-2, BJAB and Ramos lymphoma cells; also called CD37 antigen; human CD37 wildtype
# T1 sequence: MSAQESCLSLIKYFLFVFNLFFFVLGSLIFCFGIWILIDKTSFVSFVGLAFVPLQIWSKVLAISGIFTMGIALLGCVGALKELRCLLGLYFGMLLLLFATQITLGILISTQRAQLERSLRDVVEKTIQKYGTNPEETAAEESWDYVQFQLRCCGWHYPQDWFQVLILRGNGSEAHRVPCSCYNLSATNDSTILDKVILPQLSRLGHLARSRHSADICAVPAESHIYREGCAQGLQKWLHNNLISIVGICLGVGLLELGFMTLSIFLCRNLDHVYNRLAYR
# test-protocol: flow cytometry titration; apparent Kd; cells not named
State just the number; it will be interpreted in nM.

### Prompt Tell me the measured Kd of huCD37-51 (antibody, human IgG1, kappa, V domains shown, Humanized antibody) VH: EVQLVESGPEVLKPGESLSLTCTVSGYSISSGFAWHWIRQFPGKGLEWMGYIHYSGSTNYSPSLQGRISITRDSSINQFFLQLNSVTASDTATYYCARGYYGFGAWFVYWGQGTLVTVSA VL: EIVLTQSPATMSASPGERVTMTCSATSSVTYMHWYQQKPGQSPKRWIYDTSKLASGVPARFSGSGSGTSYSLTISSMEAEDAATYYCQQWSSNPPTFGQGTKLEIKR , please.
### Response 2

### Prompt What about huCD37-50-SMCC-DM1 (antibody, human IgG1, kappa, V domains shown, DM1 attached through SMCC linker; attachment residues and load not stated, SMCC-DM1 conjugate of huCD37-50) VH: QVQLQESGPGLLKPSQSLSLTCTVSGYSITSGFAWHWIRQHPGNKLEWMGYILYSGSTVYSPSLKSRISITRDTSKNHFFLQLNSVTAADTATYYCARGYYGYGAWFAYWGQGTLVTVSA VL: EIVLTQSPATMSASPGERVTMTCSATSSVTYMHWYQQKPGQSPKRWIYDTSNLPYGVPARFSGSGSGTSYSLTISSMEAEDAATYYCQQWSDNPPTFGQGTKLEIKR ?
### Response 0.7

### Prompt What about huCD37-3-PEG4-mal-DM1 (antibody, human IgG1, kappa, V domains shown, DM1 attached through PEG4-mal linker; attachment residues not stated; 3.5-4 maytansinoid molecules per antibody, heavy chain version as for huCD37-3, see its note) VH: QVQVQESGPGLVAPSQTLSITCTVSGFSLTTSGVSWVRQPPGKGLEWLGVIWGDGSTNYHPSLKSRLSIKKDHSKSQVFLKLNSLTAADTATYYCAKGGYSLAHWGQGTLVTVSS VL: DIQMTQSPSSLSVSVGERVTITCRASENIRSNLAWYQQKPGKSPKLLVNVATNLADGVPSRFSGSGSGTDYSLKINSLQPEDFGTYYCQHYWGTTWTFGQGTKLEIKR ?
### Response 0.35
